Listed next: entries and their corresponding EC50 at 24 h.
Test system: ABCB1
Assay: ABCB1 mRNA expression in LS180 cells (real-time RT-PCR)
Assay type: cell-based, human
Details: human, LS180 cells, LS180, 24 h, extracellular concentration
Procedure: A random hexamer primer was used according to the manufacturer’s instructions. […] Experiments were performed in four independent biological replicates with technical duplicates (PCR runs) for each concentration.

[
  {
    "compound": "CO[C@H]1/C=C/O[C@@]2(C)Oc3c(C)c(O)c4c(O)c(c(/C=N/N5CCN(C)CC5)c(O)c4c3C2=O)NC(=O)/C(C)=C\\C=C\\[C@H](C)[C@H](O)[C@@H](C)[C@@H](O)[C@@H](C)[C@H](OC(C)=O)[C@@H]1C [Rifampicin]",
    "EC50 at 24 h, µM": 8.6
  },
  {
    "compound": "CO[C@H]1/C=C/O[C@@]2(C)Oc3c(C)c(O)c4c(c3C2=O)C2=NC3(CCN(CC(C)C)CC3)NC2=C(NC(=O)/C(C)=C\\C=C\\[C@H](C)[C@H](O)[C@@H](C)[C@@H](O)[C@@H](C)[C@H](OC(C)=O)[C@@H]1C)C4=O [Rifabutin]",
    "EC50 at 24 h, µM": 1.1
  }
]

---

Tested on: ABCB1
Assay: ABCB1 mRNA expression in LS180 cells (real-time RT-PCR)
Type: cell-based, human
Details: human, LS180 cells, LS180, 24 h (24*), intracellular concentrations

[
  {
    "smiles entry": "CO[C@H]1/C=C/O[C@@]2(C)Oc3c(C)c(O)c4c(O)c(c(/C=N/N5CCN(C)CC5)c(O)c4c3C2=O)NC(=O)/C(C)=C\\C=C\\[C@H](C)[C@H](O)[C@@H](C)[C@@H](O)[C@@H](C)[C@H](OC(C)=O)[C@@H]1C",
    "EC50 at 24 h (µM)": 37.4
  }
]

---

System: ABCB1
Test: ABCB1 mRNA expression in LS180 cells (real-time RT-PCR)
Format: cell-based, human
Details: human, LS180 cells, LS180, 96 h
Listed next: entries and their corresponding EC50 at 96 h.

[
  {
    "molecule": "CO[C@H]1/C=C/O[C@@]2(C)Oc3c(C)c(O)c4c(c3C2=O)C2=NC3(CCN(CC(C)C)CC3)NC2=C(NC(=O)/C(C)=C\\C=C\\[C@H](C)[C@H](O)[C@@H](C)[C@@H](O)[C@@H](C)[C@H](OC(C)=O)[C@@H]1C)C4=O [Rifabutin]",
    "EC50 at 96 h": "1800 nM"
  },
  {
    "molecule": "CO[C@H]1/C=C/O[C@@]2(C)Oc3c(C)c(O)c4c(O)c(c(/C=N/N5CCN(C)CC5)c(O)c4c3C2=O)NC(=O)/C(C)=C\\C=C\\[C@H](C)[C@H](O)[C@@H](C)[C@@H](O)[C@@H](C)[C@H](OC(C)=O)[C@@H]1C [Rifampicin]",
    "EC50 at 96 h": "1100 nM"
  }
]

---

Tested on: ABCB1
Assay: ABCB1 mRNA expression in LS180 cells (real-time RT-PCR)
Type: cell-based, human
Conditions: LS180, 24 h (24*), intracellular concentrations
pEC50: −log10 of the molar value.

[
  {
    "smiles entry": "CO[C@H]1/C=C/O[C@@]2(C)Oc3c(C)c(O)c4c(O)c(c(/C=N/N5CCN(C)CC5)c(O)c4c3C2=O)NC(=O)/C(C)=C\\C=C\\[C@H](C)[C@H](O)[C@@H](C)[C@@H](O)[C@@H](C)[C@H](OC(C)=O)[C@@H]1C",
    "pEC50": 4.43
  }
]
